Target: PDE10 (UniProt Q9Y233)
Test: PDE10 enzyme inhibition, IMAP TR-FRET assay (MPDE10A7 Enzyme Activity and Inhibition)
Assay type: biochemical
Settings: IC50 class against PDE10; read-out: IC50
pIC50: −log10 of the molar value.
metricName: pIC50

Record excerpt, results attached:
COc1nccnc1Oc1ccc(C(=O)c2nc3ccccc3[nH]2)cc1 [Example 160] :: 5.30 to 6.00
CC(Cc1ccccn1)NC(=O)c1nccnc1Oc1ccc(C(=O)c2nc3ccccc3[nH]2)cc1 (racemic) [Example 259] :: > 7.60
COCC1CCN(c2nccnc2Oc2ccc(Nc3nc4ccccc4s3)cc2)C1 (racemic) [Example 88] :: > 7.60
CC(=O)N1CCC(c2nccnc2Oc2ccc(C(=O)c3nc4ccccc4n3C)cc2)CC1 [Example 242] :: > 7.60
Fc1cc(Oc2nccnc2Cl)ccc1Nc1nc2ccccc2s1 [Example 103] :: 5.30 to 6.00

# pIC50 of c1ccc2sc(Nc3ccc(Oc4nccnc4-c4ccc(N5CCOCC5)cc4)cc3)nc2c1 [Example 139] = 6.60 to 7.00

Short answer for O=C(c1ccc(Oc2nccnc2-c2cccnc2)cc1)c1nc2ccccc2[nH]1 [Example 123] : pIC50 was > 7.60

pIC50 for OCC1CCCCN1c1nccnc1Oc1ccc(Nc2nc3ccccc3s2)cc1 (centres unmarked) [Example 97] is > 7.60

Looking up Cc1ncsc1CCOc1nccnc1Oc1ccc(C(=O)c2nc3ccccc3[nH]2)cc1 [Example 170] , I see its pIC50 listed as 6.60 to 7.00

Please fill in: pIC50 reported for OC1CCN(c2nccnc2Oc2ccc(Nc3nc4ccccc4s3)cc2)CC1 [Example 67] = > 7.60

Memo: OCCC1CCN(c2nccnc2Oc2ccc(Nc3nc4ccccc4s3)cc2)CC1 [Example 86] , reported pIC50: 7.00 to 7.60

# pIC50 (compound: Fc1ccc2sc(Nc3ccc(Oc4nccnc4Cl)cc3)nc2c1 [Example 102] ) is 5.30 to 6.00

* * *

Below: a set of entries, each annotated with reported pIC50.
Biological target: PDE10 (UniProt Q9Y233)
Test: PDE10 enzyme inhibition, IMAP TR-FRET assay (MPDE10A7 Enzyme Activity and Inhibition)
Format: biochemical
Conditions: IC50 class against PDE10; read-out: IC50
pIC50: −log10 of the molar value.

O=C(c1ccc(Oc2nccnc2C2(O)CCOCC2)cc1)c1nc2ccccc2[nH]1 :: > 7.60
O=C(c1ccc(Oc2nccnc2-c2ccnc(C(F)(F)F)c2)cc1)c1nc2ccccc2[nH]1 :: > 7.60
N#CC1(c2nccnc2Oc2ccc(Nc3nc4ccccc4s3)cc2)CCOCC1 :: > 7.60

Pending compound:
In plain terms, c1ccc2[nH]c(Nc3ccc(Oc4nccnc4C4CCOCC4)cc3)nc2c1 has a documented pIC50 of > 7.60

* * *

Target: PDE10 (UniProt Q9Y233)
Assay: PDE10 enzyme inhibition, IMAP TR-FRET assay (MPDE10A7 Enzyme Activity and Inhibition)
Format: biochemical
Details: IC50 class against PDE10; read-out: IC50
metricName: IC50

Worked cases, IC50 given:
CC(C)(C)OC(=O)N1CC=C(c2nccnc2Oc2ccc(Nc3nc4ccccc4s3)c(F)c2)CC1 :: < 25 nM
OC1(c2nccnc2Oc2ccc(Nc3nc4ccccc4s3)cc2)CCOCC1 :: < 25 nM
Cc1ccc(-c2nccnc2Oc2ccc(Nc3nc4ccccc4s3)cc2)cn1 :: < 25 nM

Simply: O=C(c1ccc(Oc2nccnc2OCc2ccccn2)cc1)c1nc2ccccc2[nH]1 , PDE10 (UniProt Q9Y233), IC50 = 25 to 100 nM

Value (IC50, PDE10 (UniProt Q9Y233)) for record COC(=O)C1CCN(c2nccnc2Oc2ccc(Nc3nc4ccccc4s3)cc2)C1 (centres unmarked) = < 25 nM

Entry COc1ncccc1-c1nccnc1Oc1ccc(Nc2nc3ccc(F)cc3s2)cc1 under PDE10 (UniProt Q9Y233) had IC50 of 25 to 100 nM

For Fc1cccc2nc(Nc3ccc(Oc4cnccn4)cc3)sc12 on PDE10 (UniProt Q9Y233), measured IC50 was 1000 to 5000 nM

Reported PDE10 (UniProt Q9Y233) IC50 for item O=C(c1ccc(Oc2nccnc2C2CCCOCC2)cc1)c1nc2ccccc2[nH]1 (centres unmarked) was < 25 nM

The reported IC50 value, PDE10 (UniProt Q9Y233), for OCc1ccc(-c2nccnc2Oc2ccc(Nc3nc4ccccc4s3)cc2)cn1 reads 25 to 100 nM

// IC50 (PDE10 (UniProt Q9Y233)) for Fc1cccc2nc(Nc3ccc(Oc4nccnc4Cl)cc3)sc12 = 1000 to 5000 nM

Simply: CC1CN(c2nccnc2Oc2ccc(Nc3nc4ccccc4s3)cc2)CC(=O)N1 (racemic) , PDE10 (UniProt Q9Y233), IC50 = < 25 nM

Known value: PDE10 (UniProt Q9Y233) IC50 of the molecule O=C(c1ccc(Oc2nccnc2OCc2ccncc2)cc1)c1nc2ccccc2[nH]1 equals 100 to 250 nM
